Assay: Probe fluorescence ratio response to linolenic acid relative to ADIFAB2
Format: binding
Settings: response relative to ADIFAB2
Source text: In an alternate preferred embodiment, the protein is rI-FABP that has Ala substituted for Leu at position 72 (rI-FABP-L72A) with the resulting probe named ADIFAB2. […] ADIFAB2 also has an altered spectral response, making it especially useful for measurements of FFAu in blood samples (Apple et al, Clinical Proteomics, (2004) 1:41-44, U.S. patent application Ser. No. 10/670,958). […] The baseline value for this ratio, measured in the absence of analyte, is designated R0. […]
endpoint: DR/DR LNA
Please respond with just the number, no unit label.

molecule | DR/DR LNA
14S, 72A (protein, listed as Rattus norvegicus, PEPTIDE (1)...(131) wild-type rat intestinal fatty acid binding protein) AFDGTWKVDRNENSEKFMEKMGINVVKRKLGAHDNLKLTITQEGNKFTVKESSNFRNIDVVFELGVDFAYSAADGTELTGTWTMEGNKLVGKFKRVDNGKELIAVREISGNELIQTYTYEGVEAKRIFKKE | 0.53
104N1, 72A (protein, listed as Rattus norvegicus, PEPTIDE (1)...(131) wild-type rat intestinal fatty acid binding protein) AFDGTWKVDRNENYEKFMEKMGINVVKRKLGAHDNLKLTITQEGNKFTVKESSNFRNIDVVFELGVDFAYSAADGTELTGTWTMEGNKLVGKFKRVDNGKELINVREISGNELIQTYTYEGVEAKRIFKKE | 1.06
14I 72A (protein, listed as Rattus norvegicus, PEPTIDE (1)...(131) wild-type rat intestinal fatty acid binding protein) AFDGTWKVDRNENIEKFMEKMGINVVKRKLGAHDNLKLTITQEGNKFTVKESSNFRNIDVVFELGVDFAYSAADGTELTGTWTMEGNKLVGKFKRVDNGKELIAVREISGNELIQTYTYEGVEAKRIFKKE | 0.997
82A1, 72A (protein, listed as Rattus norvegicus, PEPTIDE (1)...(131) wild-type rat intestinal fatty acid binding protein) AFDGTWKVDRNENYEKFMEKMGINVVKRKLGAHDNLKLTITQEGNKFTVKESSNFRNIDVVFELGVDFAYSAADGTELTGTATMEGNKLVGKFKRVDNGKELIAVREISGNELIQTYTYEGVEAKRIFKKE | 0.66
60L, 72A (protein, listed as Rattus norvegicus, PEPTIDE (1)...(131) wild-type rat intestinal fatty acid binding protein) AFDGTWKVDRNENYEKFMEKMGINVVKRKLGAHDNLKLTITQEGNKFTVKESSNFRNIDLVFELGVDFAYSAADGTELTGTWTMEGNKLVGKFKRVDNGKELIAVREISGNELIQTYTYEGVEAKRIFKKE | 1.26

[in] Kindly indicate its recorded DR/DR LNA. Item: 14R 18L 31S 73F 117E 72A (protein, listed as Rattus norvegicus, PEPTIDE (1)...(131) wild-type rat intestinal fatty acid binding protein) AFDGTWKVDRNENREKFLEKMGINVVKRKLSAHDNLKLTITQEGNKFTVKESSNFRNIDVVFELGVDFAYSAFDGTELTGTWTMEGNKLVGKFKRVDNGKELIAVREISGNELIQTETYEGVEAKRIFKKE
[out] 2.296
